The reported numbers originate from patent US20190106487A1.

TARGET_DESC: T1, human IL-1RAcP on 293T/17-FR cells (human, UniProt Q9NPH3 21-570)
T1 sequence (looked up): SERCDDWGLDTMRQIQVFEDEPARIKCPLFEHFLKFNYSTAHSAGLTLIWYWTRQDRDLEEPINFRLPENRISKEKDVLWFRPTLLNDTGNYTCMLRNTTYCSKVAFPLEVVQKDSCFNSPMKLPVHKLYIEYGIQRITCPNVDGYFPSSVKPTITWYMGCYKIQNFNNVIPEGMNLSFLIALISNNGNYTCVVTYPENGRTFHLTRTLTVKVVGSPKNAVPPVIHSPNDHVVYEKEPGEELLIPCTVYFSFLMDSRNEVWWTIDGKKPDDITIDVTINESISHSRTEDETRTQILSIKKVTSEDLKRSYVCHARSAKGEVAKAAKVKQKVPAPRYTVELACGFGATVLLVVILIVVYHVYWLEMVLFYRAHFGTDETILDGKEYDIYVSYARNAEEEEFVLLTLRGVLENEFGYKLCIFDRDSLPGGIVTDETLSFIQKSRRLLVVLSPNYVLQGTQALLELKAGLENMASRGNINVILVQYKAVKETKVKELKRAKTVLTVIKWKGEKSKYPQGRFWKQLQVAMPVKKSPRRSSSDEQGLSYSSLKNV
ASSAY_SUMMARY: cell-based or functional assay
Below, each of the binders is paired with its reported functional reporter gene assay (% inhibition), 0.04 µg/mL mAb value.
ENDPOINT_NAME: functional reporter gene assay (% inhibition), 0.04 µg/mL mAb (%)

[[record]]
binder = "P013.S.01.B.E05 (antibody, V domains shown, rabbit monoclonal antibody; also called P013.A.00086.F02) VH: QSLEESGGDLVKPGASLTLTCTASGISFSSSDFMCWVRQAPGKGLEWIACIYAGSSVSIYYATWAKGRFTISKASSTTVTLQMASLTVADTATYFCARSTGSVGRGFNLWGQGTLVTVSS VL: AQVLTQTPSPVSAAVGGTVTISCQASQSVYNSNHLSWYQQKPGQPPRLLIYSASTLASGVPSRFKGSGSGTQFTLTISGVQSDDAATYYCQGEFSCVSADCIAFGGGTEVVVK"
value_reported = 26

[[record]]
binder = "P013.S.02.B.H02 (antibody, V domains shown, rabbit monoclonal antibody; also called P013.A.00015.B10) VH: QSLEESGGRLVTPGTPLTLTCTVSGFSLSSCAMIWVRQAPGKGLEWIGFIGRGGSTWYASWVNGRFTISKTSTTVDLKITSPTTEDTATYFCARDGDFSDYYTFNLWGQGTLVTVSS VL: DVVMTQTPASVSEPVGGTVTIKCQASQNIGSNLAWYQQKPGQPPKLLIYGASTLASGVPSRFSGSGSGTEFTLTISGVQSADATTYYCQCSGYDTTGVFPFGGGSEVVVR"
value_reported = 25

[[record]]
binder = "P013.S.02.B.D04 (antibody, V domains shown, rabbit monoclonal antibody; also called P013.A.00086.A06) VH: QSLEESGGDLVQPGGSLTLTCKASGFSFSASYWICWVRQAPGKGLEWIGCIYIGGGGRYYASWAKGRFTISKTSSTTVTLQMTSLTAADTATYFCARDPVTSGSDYVYDLWGPGTLVTVAS VL: AYDMTQTPASVEVAVGGTVTIKCQASESISTWLAWYQQKPGQPPNLLIYRASTLASGVPSRFYGSGYGTEFTLTISGVESADAATYYCQQGYTVNNIDNVFGGGTEVVVK"
value_reported = 4

[[record]]
binder = "P013.S.02.B.B01 (antibody, V domains shown, rabbit monoclonal antibody; also called P013.A.00088.A11) VH: QSLEESGGRLVTPGTPLTLTCTVSGFSLSGYAMSWVRQAPGKGLEWIGIIYAGSGGTYYASWVKGRFTISKTSTTVDLKITSLTTEDTATYFCARAVPDDSAGKKLWGQGTLVTVSS VL: DIVMTQTPASVEAAVGGTITINCQASENIYSSLAWYQQKPGQPPKLLIYDASTLASGVSSRFKGSGSGTQFTLTISGVQSDDAATYYCQSYYCSVSSSCGYGFGGGTEVVVK"
value_reported = 24

[[record]]
binder = "P013.S.01.B.G03 (antibody, V domains shown, rabbit monoclonal antibody; also called P013.A.00030.C03) VH: QEQLVESGGGLVQPEGSLTLTCKASGFDFSSNYYMCWVRQAPGKGLELIACIYTNSGNTWSASWAKGRFTISKTSSTTVTLQMTSLTAADTATYFCARDLNYPDTSNLWGQGTLVTVSS VL: DIVMTQTPASVEAAVGGTVTIKCQASQSIGYYLAWYQQKPGQPPKLLISRASTLASGVPSRFKGSGSGTQFTLTISDLESADVATYYCQSYYNSDSDAFGGGTEVVVK"
value_reported = 38

